Assay: Solubility test of the crystal form A
Assay type: physicochemical
Settings: organic solvent or mixture, thermodynamic from solid; n-Butanol; room temperature
recorded endpoint: solubility

[in] Would you mind telling me what solubility value was observed for N=C(N)NOCCONC(=O)C1CCC2CN1C(=O)N2OS(=O)(=O)O (stereo not shown) ?
[out] < 2000 µg/mL

* * *

Experiment: Solubility test of the crystal form A
Format: physicochemical
Conditions: aqueous with cosolvent or surfactant or cyclodextrin, thermodynamic from solid; Acetonitrile-water (1:1); room temperature
recorded endpoint: solubility

[in] Param item = N=C(N)NOCCONC(=O)C1CCC2CN1C(=O)N2OS(=O)(=O)O (stereo not shown) ; retrieve measured solubility.
[out] > 103 mg/mL

* * *

Assay: Solubility test of the crystal form A
Assay type: physicochemical
Conditions: aqueous with cosolvent or surfactant or cyclodextrin, thermodynamic from solid; Acetone-water (1:2); room temperature
recorded endpoint: solubility

[in] So what's the measured solubility for this one? N=C(N)NOCCONC(=O)C1CCC2CN1C(=O)N2OS(=O)(=O)O (stereo not shown)
[out] 20.5 to 34.2 mg/mL

* * *

Experiment: Solubility test of the crystal form A
Format: physicochemical
Settings: organic solvent or mixture, thermodynamic from solid; 1,4-Dioxane; room temperature
recorded endpoint: solubility

[in] # input compound: N=C(N)NOCCONC(=O)C1CCC2CN1C(=O)N2OS(=O)(=O)O (stereo not shown) ; wanted: its solubility
[out] < 2100 µg/mL
